system: NCI-H446 (Small Cell Lung Carcinoma); test: Bliss excess, mean over the matrix (fraction); higher = more synergy;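 note: after 72 h of two-drug dosing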
test_readout: Bliss excess
Number, no unit, nothing else.

The examples below pair each entry with its known result.
INSERT INTO assay_data (molecule, measurement) VALUES
  ('CN(CCO)CC[C@H](CSc1ccccc1)Nc1ccc(S(=O)(=O)NC(=O)c2ccc(N3CCC([C@@H](O)c4ccccc4-c4ccc(Cl)cc4)CC3)cc2)cc1S(=O)(=O)C(F)(F)F [AZD4320] + CN(C)CCCOc1ccc(-c2ccc3ncc4c(c3c2)n(C2CCOCC2)c(=O)n4C)cn1 [AZD0156] (first compound max 1 µM, 7x7, partner max 1 µM)', -0.0002),
  ('CC1(C)CCC(CN2CCN(c3ccc(C(=O)NS(=O)(=O)c4ccc(NCC5CCOCC5)c([N+](=O)[O-])c4)c(Oc4cnc5[nH]ccc5c4)c3)CC2)=C(c2ccc(Cl)cc2)C1 [Venetoclax] + Cc1cc2ncnn2cc1Nc1ncc2c(n1)n(C1CCOCC1)c(=O)n2C [AZD7648] (first compound max 1 µM, 7x7, partner max 10 µM)', -0.0181),
  ('CN(CCO)CC[C@H](CSc1ccccc1)Nc1ccc(S(=O)(=O)NC(=O)c2ccc(N3CCC([C@@H](O)c4ccccc4-c4ccc(Cl)cc4)CC3)cc2)cc1S(=O)(=O)C(F)(F)F [AZD4320] + C[C@@H]1COCCN1C2=NC(=NC(=C2)C3(CC3)[S@](=N)(=O)C)C4=C5C=CNC5=NC=C4 [AZD6738] (first compound max 1 µM, 7x7, partner max 10 µM)', 0.0178),
  ('Cc1c2c(nn1C)CSCc1cc(n(C)n1)CSc1cc(c3ccccc3c1)OCCCc1c(C(=O)O)n(C)c3c-2c(Cl)ccc13 [AZD5991] + CN(C)CCCOc1ccc(-c2ccc3ncc4c(c3c2)n(C2CCOCC2)c(=O)n4C)cn1 [AZD0156] (first compound max 1 µM, 7x7, partner max 1 µM)', 0.052),
  ('CCN(CCO)CCCOc1ccc2c(Nc3cc(CC(=O)Nc4cccc(F)c4)[nH]n3)ncnc2c1 [AZD2811] + C=CCn1c(=O)c2cnc(Nc3ccc(N4CCN(C)CC4)cc3)nc2n1-c1cccc(C(C)(C)O)n1 [AZD1775] (first compound max 1 µM, partner max 1 µM)', 0.015);

Task: For NCI-H446 (Small Cell Lung Carcinoma), provide Bliss excess of Cc1cc2ncnn2cc1Nc1ncc2c(n1)n(C1CCOCC1)c(=O)n2C [AZD7648] + C[C@@H]1COCCN1C2=NC(=NC(=C2)C3(CC3)[S@](=N)(=O)C)C4=C5C=CNC5=NC=C4 [AZD6738] (first compound max 10 µM, 7x7, partner max 10 µM) please.
Output: 0.0335

Task: For NCI-H446 (Small Cell Lung Carcinoma), provide Bliss excess of COc1nnc2ccc(N3CCC(c4ccc(OCCN5CCN(C)C(=O)[C@H]5C)cc4)CC3)nn12 [AZD5153] + Cn1cnc2c(F)c(Nc3ccc(Br)cc3Cl)c(C(=O)NOCCO)cc21 [Selumetinib] (first compound max 1 µM, 7x7, partner max 10 µM) please.
Output: 0.033

* * *

tested on: LB996-RCC (Kidney Carcinoma); assay: Bliss excess, mean over the matrix (fraction); higher = more synergy
test_readout: Bliss excess
Number, no unit, nothing else.

INSERT INTO assay_data (molecule, measurement) VALUES
  ('NC1(C(=O)N[C@@H](CCO)c2ccc(Cl)cc2)CCN(c2ncnc3[nH]ccc23)CC1 [Capivasertib] + Cn1cnc2c(F)c(Nc3ccc(Br)cc3Cl)c(C(=O)NOCCO)cc21 [Selumetinib] (first compound max 10 µM, 7x7, partner max 10 µM)', 0.0146);

// switching to the query molecule
Task: Looking for the measured Bliss excess of Cc1cc2ncnn2cc1Nc1ncc2c(n1)n(C1CCOCC1)c(=O)n2C [AZD7648] + C[C@@H]1COCCN1C2=NC(=NC(=C2)C3(CC3)[S@](=N)(=O)C)C4=C5C=CNC5=NC=C4 [AZD6738] (first compound max 10 µM, 7x7, partner max 10 µM) , can you help?
Output: -0.0199

Measured values drawn from the supplement of paper PMC11061612 for this set.
